# experimental system: Torsin-1A (Homo sapiens) (UniProt O14656)
# Sequence (O14656 whole entry, looked up): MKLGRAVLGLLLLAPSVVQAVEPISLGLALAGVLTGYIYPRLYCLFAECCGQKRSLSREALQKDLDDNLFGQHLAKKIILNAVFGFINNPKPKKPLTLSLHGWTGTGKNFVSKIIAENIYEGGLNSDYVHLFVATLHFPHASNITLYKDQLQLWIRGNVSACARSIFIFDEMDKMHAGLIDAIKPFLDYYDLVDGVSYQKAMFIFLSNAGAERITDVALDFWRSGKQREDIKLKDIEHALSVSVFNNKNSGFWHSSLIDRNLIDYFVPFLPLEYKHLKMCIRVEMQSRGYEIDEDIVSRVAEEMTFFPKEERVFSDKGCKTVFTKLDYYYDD
# assay explanation: torsin A binders from cell lysate, primary screen, small-molecule microarray, wild-type, 635/667 nm (AID 1149)
# run parameters: COS7 hTOR1A-WT lysate, 635 nm fluorescence, higher = more signal
# if value of composite z-score reaches 0.3, tag Satisfied; if it stays below, tag Not satisfied

[[record]]
compound = "O=C(NCc1ccc(F)cc1)[C@H]1C[C@H]2C(=O)N[C@@H](Cc3ccccc3)C(=O)N2[C@H]1c1ccc(O)cc1"
label_value = "Satisfied"

[[record]]
compound = "CC(C)C[C@@H]1NC(=O)[C@H]2C[C@@H](C(=O)NCCCCCCN(C)C)[C@@H](c3ccc(O)cc3)N2C1=O"
label_value = "Satisfied"

[[record]]
compound = "COc1ccc([Si](C)(C)[C@H]2[C@H](CCn3cc([C@H](O)c4ccccc4)nn3)O[C@@]3(C(=O)N(Cc4cccc(N5CCOC5=O)c4)c4ccccc43)[C@@H]2C)cc1"
label_value = "Not satisfied"

[[record]]
compound = "[N-]=[N+]=NCc1ccccc1C[C@]1(C(=O)NCC(O)CO)N=C(c2ccc(OCCCO)cc2)O[C@H]1c1ccccc1 (some centres undefined)"
label_value = "Satisfied"

[[record]]
compound = "C=CCC(OC(C)=O)[C@@H]1[C@@H](N(Cc2ccc(-c3cccc(C(F)(F)F)c3)o2)C(=O)Cc2ccc(F)cc2)c2cc(OCCCO)ccc2N1C(=O)Cc1ccc(OC)cc1 (some centres undefined)"
label_value = "Not satisfied"

[[record]]
compound = "CN(C)CCCNC(=O)[C@@]1(C)c2ccccc2C(=O)N(Cc2cc(F)cc(C(F)(F)F)c2)[C@H]1c1ccc(CO)cc1"
label_value = "Not satisfied"

[[record]]
compound = "[N-]=[N+]=NCc1ccccc1[C@H]1OC(c2ccc(OCCCO)cc2)=N[C@@]1(Cc1ccccc1)C(=O)NCc1ccccc1"
label_value = "Not satisfied"

[[record]]
compound = "COc1cc2c(cc1O)C(C1CC1)N(Cc1cc3c(cc1Br)OCO3)CC2 (centres undefined)"
label_value = "Not satisfied"

[[record]]
compound = "CCOc1cc(C(O)C2C=CC3C(=O)N(c4ccccc4)C(=O)C3N2Nc2ccccc2)ccc1O (centres undefined)"
label_value = "Not satisfied"

[[record]]
compound = "O=C1C[C@]2(c3ccc([N+](=O)[O-])cc3)C(=O)N(CCN3CCOCC3)c3cc(CO)ccc3[C@H]2N1C1CCCCC1"
label_value = "Not satisfied"

[[record]]
compound = "CC1(C)[C@@H]2CC(C(O)C3C=CC4C(=O)N(c5ccccc5)C(=O)C4N3Nc3ccccc3)=C[C@H]1C2 (some centres undefined)"
label_value = "Not satisfied"

[[record]]
compound = "CCc1oc(CC[C@@H](CO)NC(=O)NCCn2cc(C3(O)CCCCC3)nn2)c(C(=O)OC)c1C(=O)OC"
label_value = "Satisfied"

[[record]]
compound = "COCC(=C=CC[C@@H](O)c1ccccc1OCCO)C[C@@H](O)c1cc(Cl)cc(Cl)c1O"
label_value = "Satisfied"

[[record]]
compound = "COc1ccc(CCNC(=O)[C@@H]2c3ccccc3C(=O)N(C3Cc4ccccc4C3)[C@H]2c2ccc(CO)cc2)cc1"
label_value = "Not satisfied"

[[record]]
compound = "C#CCN(CC1=CCCCC1)[C@H](c1ccccc1Br)[C@@H](O)Cc1ccccc1"
label_value = "Satisfied"

[[record]]
compound = "O=C1O[C@H](c2ccccc2)[C@H](c2ccccc2)N2[C@H]1[C@@H](C(=O)Nc1nc3ccccc3s1)[C@]1(C(=O)Nc3ccc(C#CC4(O)CCCCCC4)cc31)[C@H]2c1ccc(OCCO)cc1"
label_value = "Satisfied"

[[record]]
compound = "NC(=O)[C@@H]1[C@H]2C(=O)O[C@H](c3ccccc3)[C@H](c3ccccc3)N2[C@H](c2ccc(O)cc2)[C@@]12C(=O)Nc1ccc(C#CC3(O)CCCCCC3)cc12"
label_value = "Satisfied"

[[record]]
compound = "O=C1NCC(=O)N2[C@@H]1C[C@@H](C(=O)O)[C@H]2c1cccc(OCCO)c1"
label_value = "Satisfied"

[[record]]
compound = "CC(C)C(=C=CC[C@@H](O)c1ccccc1OCCO)CCO"
label_value = "Not satisfied"

[[record]]
compound = "COc1ccc(CCNC(=O)[C@@]2(C)c3ccccc3C(=O)N(Cc3cc(F)cc(C(F)(F)F)c3)[C@H]2c2ccc(CO)cc2)cc1"
label_value = "Not satisfied"

[[record]]
compound = "CC(C)(C)OC(=O)CC[C@@]1(C(=O)NCC(O)CO)N=C(c2ccc(OCCCO)cc2)O[C@@H]1c1ccccc1N=[N+]=[N-] (some centres undefined)"
label_value = "Satisfied"

[[record]]
compound = "CN1C(=O)C2C=CC(C(O)c3ccc(-c4ccccc4)s3)N(N(c3ccccc3)c3ccccc3)C2C1=O (centres undefined)"
label_value = "Satisfied"

[[record]]
compound = "C=CCOC(=O)[C@@H]1[C@H]2C(=O)O[C@H](c3ccccc3)[C@H](c3ccccc3)N2[C@H](c2ccc(OCCOC(=O)[C@@H]3C[C@@H]4C(=O)N[C@@H](Cc5ccccc5)C(=O)N4[C@@H]3c3ccc(O)cc3)cc2)[C@@]12C(=O)Nc1ccc(I)cc12"
label_value = "Satisfied"

[[record]]
compound = "COc1ccc(C(O)C2C=CC3C(=O)N(C)C(=O)C3N2N2CCCCC2)c2ccccc12 (centres undefined)"
label_value = "Satisfied"

[[record]]
compound = "COC(=O)[C@@]1(Cc2ccccc2)[C@H]2c3cc(C(=O)N4CCCC4)n(CC4CC4)c3C[C@H]2CN1C(=O)c1ccccc1"
label_value = "Not satisfied"

[[record]]
compound = "C=C(CCCC)C(=O)CC[C@H](OC(C)=O)c1cccc(OCCO)c1"
label_value = "Not satisfied"

[[record]]
compound = "NCCCCCNC(=O)[C@@H]1C[C@@H]2C(=O)N[C@@H](Cc3ccccc3)C(=O)N2[C@@H]1c1cccc(OCCO)c1"
label_value = "Satisfied"

[[record]]
compound = "C=CCN1C(=O)[C@]2(O[C@H](CCO)[C@@H]([Si](C)(C)c3ccc(OC)cc3)[C@@H]2C)c2cc(N3C(=O)c4cccc5cccc3c45)ccc21"
label_value = "Satisfied"


###

Listed compounds paired with reported z-score
# assay explanation: basal S. cerevisiae growth modulation, no modifier, primary screen, OD600, strain BY4716, 24 h, basal condition (AID 1173)
# run parameters: OD600, 24 h, higher = more signal, called active from +8 up or from −8 down
endpoint name: z-score

[[record]]
compound = "C=CC[C@@]1(C(=O)NCc2ccccc2)N=C(c2ccc(OCCCO)cc2)O[C@@H]1c1ccccc1N=[N+]=[N-]"
endpoint_name = "z-score"
recorded_result = 0.669

[[record]]
compound = "NC(=O)[C@@H]1[C@H]2C(=O)O[C@H](c3ccccc3)[C@H](c3ccccc3)N2[C@H](c2ccc(O)cc2)[C@@]12C(=O)Nc1ccc(C#CC3(O)CCCCCC3)cc12"
endpoint_name = "z-score"
recorded_result = -1.32

[[record]]
compound = "COCCOC(=O)N1C(=O)[C@@]2(c3ccccc31)[C@H](c1ccccc1OCCO)N1[C@H](c3ccccc3)[C@H](c3ccccc3)OC(=O)[C@H]1[C@@H]2C(=O)Nc1nc2ccccc2s1"
endpoint_name = "z-score"
recorded_result = 1.33

[[record]]
compound = "CC1CC/C=C\\[C@H]2OC34C=CCN(C(C)(C)C)C(=O)[C@H]3N(CCCCCCO)C(=O)[C@@H]4C2C(=O)O1 (stereo partly specified)"
endpoint_name = "z-score"
recorded_result = -0.51

[[record]]
compound = "C=CCNC(=O)[C@@H]1[C@H]2C(=O)O[C@H](c3ccccc3)[C@H](c3ccccc3)N2[C@H](c2ccc(OCCO)cc2)[C@@]12C(=O)Nc1ccc(C#Cc3ccc(OC)cc3)cc12"
endpoint_name = "z-score"
recorded_result = 1.84

[[record]]
compound = "Cc1ccc(S[C@]2(C(=O)NC(C)C)CC(=O)N(Cc3ccccc3Cl)[C@@H]2c2ccc(CO)cc2I)cc1"
endpoint_name = "z-score"
recorded_result = -3.93


###

Listed compounds paired with reported z-score
# assay explanation: E. coli acrAB mutant growth effects, primary screen, E. coli filamentation inducers, strain DRC39, OD650, 24 h (AID 1178);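 also: growth measured as culture turbidity by optical density at 650 nm; test concentration not given here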
# run parameters: higher = more signal, called active from +8 up or from −8 down
endpoint name: z-score

[[record]]
compound = "CCCN1C(=O)[C@]2(CCS(=O)(=O)c3ccccc3)N=C(c3ccc(OCCCO)cc3)O[C@@H]2c2ccccc21"
recorded_result = 1.82

[[record]]
compound = "CCCCCC1=C2CNC(CCC)(C(=O)OC)C=C2C(C)C1=O (stereo not drawn)"
recorded_result = 0.0107

[[record]]
compound = "O=C(NCc1ccccc1)[C@@H]1c2ccccc2C(=O)N(CC23CC4CC(CC(C4)C2)C3)[C@H]1c1ccc(CO)cc1"
recorded_result = -0.142

[[record]]
compound = "COc1ccc(CCN2C(=O)[C@@]3(Cc4ccccc42)c2ccccc2C(=O)N(Cc2ccccc2C(F)(F)F)[C@H]3c2ccc(CO)cc2)cc1"
recorded_result = -0.0813

[[record]]
compound = "COc1ccc(C(=O)Nc2ccc(CN3C(=O)[C@@]4(O[C@@H](CCO)[C@H]([Si](C)(C)c5ccc(OC)cc5)[C@H]4C)c4ccccc43)cc2)cc1"
recorded_result = 1.53

[[record]]
compound = "C=CC[C@]1(C(=O)N2CCCCC2)N=C(c2ccc(OCCCO)cc2)O[C@H]1c1ccccc1"
recorded_result = 0.825

[[record]]
compound = "CN1C(=O)C2C=CC(C(O)C3=C[C@H]4C[C@@H](C3)C4(C)C)N(Nc3ccccc3)C2C1=O (stereo partly drawn)"
recorded_result = -0.328

[[record]]
compound = "CC(C)C(=C=CC[C@@H](O)c1ccccc1OCCO)CCO"
recorded_result = 0.272

